The reported measurements were obtained from ChEMBL document CHEMBL3507680.

Assay Procedure: Human HepG2 cell viability assay in 384 well format
Assay type: toxicity, cell-based
Design: dose 125 nL, time 70.5 hour; concentration not given beside the values
Condition Set: HepG2 cells, read-out: Inhibition
Recorded Endpoint: cytotoxicity at 70.5 h (%)
Give just the number in %; leave the unit off.

Some entries whose results are on file:
| Compound | Assay Value |
| --- | --- |
| NC(=O)CN1CCOCC(Cc2cccc(F)c2)C1 (stereo not drawn) | -12.7 |
| Cc1ccc(-c2nnc(CN3CCCC(Cn4cncn4)C3)o2)cc1 (stereo not drawn) | -1.97 |

The compound listed as Cc1ccc(C(F)(F)F)cc1NC(=O)C1CCCN1 (stereo not drawn) shows cytotoxicity at 70.5 h equal to -8.7

The compound listed as CN(C)CCNC(=O)CC1CCN(c2cccnn2)CC1 shows cytotoxicity at 70.5 h equal to -2.25

The compound listed as CCOC(=O)Cn1c(=O)c(OCC)nc2cnccc21 shows cytotoxicity at 70.5 h equal to -3.59

The compound listed as COc1c(CNCc2ccc(C(=O)N(C)C)cc2)c(C)nn1C shows cytotoxicity at 70.5 h equal to 0.637

The compound listed as Fc1ccc(Sc2ccccc2CNC2=NCCN2)cc1 shows cytotoxicity at 70.5 h equal to -5.29

The compound listed as Cc1nc(C2CCCN(C(=O)Cn3ccccc3=O)C2)sc1C (stereo not drawn) shows cytotoxicity at 70.5 h equal to -2.49
